// provenance: patent US20200131669A1

# Papp A→B at 180 min annotations
# Experiment Notes: Caco-2 membrane permeability, improved method as used in the following Examples (96-well, 20 to 24 h preincubation)
# Assay type: in vitro ADME
# Measurement Context: human, Caco-2, Caco-2 (cm/sec)
Positions of bridges follow the written chain, without caps; N, C: chain ends. Non-standard residues stand in square brackets, D forms with d. Residues, ends and D or L forms follow the SMILES beside them. *: point of attachment. NMeW = CN[C@@H](Cc1c[nH]c2ccccc12)C(=O)O; NMeF = CN[C@@H](Cc1ccccc1)C(=O)O; NMeL = CN[C@@H](CC(C)C)C(=O)O; NMeA = CN[C@@H](C)C(=O)O; Piperidide = C1CCN(*)CC1; Sar = CNCC(=O)O; tBu = CC(C)(C)*
Measurement Type: Papp A→B at 180 min (nm/s)

CC[C@H](C)[C@@H]1NC(=O)[C@H](CC(C)C)N(C)C(=O)CN(C)C(=O)C[C@@H](C(=O)N2CCCCC2)NC(=O)[C@H](C)N(C)C(=O)[C@H](COC(C)(C)C)NC(=O)[C@H](CC(C)C)N(C)C(=O)[C@H](CC(C)C)N(C)C(=O)CN(C)C(=O)[C@H](Cc2c[nH]c3ccccc23)NC(=O)[C@H](CC(C)C)N(C)C1=O [pd103] ([Sar][NMeL]I[NMeL]W[Sar][NMeL][NMeL]S(tBu)[NMeA]D-Piperidide; lactam N-11)
0.93
CC(C)C[C@H]1C(=O)N(C)[C@@H](Cc2c[nH]c3ccccc23)C(=O)N(C)[C@@H](Cc2ccccc2)C(=O)N[C@@H]([C@@H](C)O)C(=O)N(C)[C@@H](C)C(=O)N(C)[C@@H](CC(C)C)C(=O)N[C@H](C(=O)N2CCCCC2)CC(=O)N(C)[C@@H](C)C(=O)N(C)[C@@H](CC(C)C)C(=O)N(C)[C@@H](CC(C)C)C(=O)N[C@@H](C)C(=O)N1C [pd104] ([NMeA][NMeL][NMeL]A[NMeL][NMeW][NMeF]T[NMeA][NMeL]D-Piperidide; lactam N-11)
0.25

###

# Experiment Notes: Caco-2 membrane permeability, improved method as used in the following Examples (96-well, 20 to 24 h preincubation)
# Format: in vitro ADME
# Measurement Context: human, Caco-2, Caco-2
# Protocol: In the following Examples, membrane permeability was measured in accordance with the improved method established as described above. […] Each well was shaken at 5% CO2, 37° C., and 80 rpm, and 180 minutes after the initiation, the sample on the basal side was collected and the permeation amount was measured by LC/MS. The membrane permeability coefficient (Papp) was calculated from the permeation amount. […]
Starred links: 1 amine or outer side, 2 acyl side, 3 side chain; linkers in the order of their positions; H or OH if unused. Positions of bridges follow the written chain, without caps; N, C: chain ends. Non-standard residues stand in square brackets, D forms with d. Residues, ends and D or L forms follow the SMILES beside them. *: point of attachment. NMeAbu(3,3-F2-piperidino) = CN[C@@H](CCN1CCCC(F)(F)C1)C(=O)O; Glu(NHSO2Me) = CS(=O)(=O)NC(=O)CC[C@H](N)C(=O)O; Gly(NCH2CH2Ph) = O=C(O)CNCCc1ccccc1; Gly(N-(CH2)2OEt) = CCOCCNCC(=O)O; NMeF = CN[C@@H](Cc1ccccc1)C(=O)O; NMeGABA = CN(CCCC(=O)[*:2])[*:1]; NMeL = CN[C@@H](CC(C)C)C(=O)O; NMeV = CN[C@H](C(=O)O)C(C)C; NMeAbu = CC[C@H](NC)C(=O)O; NPentylGly = CCCCCNCC(=O)O; NMeA = CN[C@@H](C)C(=O)O; Piperidide = C1CCN(*)CC1; CH2CMe2OH = CC(C)(O)C*; Me2NCH2CH2 = CN(C)CC*; NBuGly = CCCCNCC(=O)O; Isopentyl = CC(C)CC*; NPrGly = CCCNCC(=O)O; Sar = CNCC(=O)O; tBu = CC(C)(C)*
# maps each entry to its Papp A→B at 180 min
Measurement Type: Papp A→B at 180 min (×10⁻⁶ cm/s)

CCOCCN1CC(=O)N(C)[C@@H](CC(C)C)C(=O)N[C@@H](COC(C)(C)C)C(=O)N(C)[C@@H](Cc2ccccc2)C(=O)N(C)[C@@H](CC)C(=O)N[C@H](C(=O)N2CCCCC2)CC(=O)N[C@H](CC(C)C)C(=O)N(C)[C@@H](Cc2ccccc2)C(=O)N[C@@H](CC(C)C)C(=O)N(C)[C@@H](CC)C(=O)N[C@@H]([C@@H](C)O)C1=O [pd416] ([dL][NMeF]L[NMeAbu]T[Gly(N-(CH2)2OEt)][NMeL]S(tBu)[NMeF][NMeAbu]D-Piperidide; lactam N-11)
3.1
CCCN1CC(=O)N(C)[C@@H](CC(C)C)C(=O)N[C@@H](COCCC(C)C)C(=O)N(C)[C@@H](Cc2ccccc2)C(=O)N(C)[C@@H](C(C)C)C(=O)N[C@H](C(=O)N2CCCCC2)CC(=O)N[C@H](C(C)C)C(=O)N(C)[C@@H](Cc2ccccc2)C(=O)N[C@@H](COCC(C)(C)O)C(=O)N(C)[C@@H](CC(C)C)C(=O)N[C@@H]([C@@H](C)O)C1=O [pd426] ([dV][NMeF]S(CH2CMe2OH)[NMeL]T[NPrGly][NMeL]S(Isopentyl)[NMeF][NMeV]D-Piperidide; lactam N-11)
1.4
CCCCN1CC(=O)N(C)[C@@H](CC(C)C)C(=O)N[C@@H](COCCN(C)C)C(=O)N(C)[C@@H](Cc2ccccc2)C(=O)N(C)[C@@H](C(C)C)C(=O)N[C@H](C(=O)N2CCCCC2)CC(=O)N[C@H](CC(C)C)C(=O)N(C)[C@@H](Cc2ccccc2)C(=O)N[C@@H](CC(C)C)C(=O)N(C)[C@@H](CC(C)C)C(=O)N[C@@H]([C@@H](C)O)C1=O [pd51] ([dL][NMeF]L[NMeL]T[NBuGly][NMeL]S(Me2NCH2CH2)[NMeF][NMeV]D-Piperidide; lactam N-11)
0.07
CC[C@H](C)[C@@H]1NC(=O)[C@H](CC(C)C)N(C)C(=O)CCCN(C)C(=O)C[C@@H](C(=O)N2CCCCC2)NC(=O)[C@H](CC(C)C)N(C)C(=O)[C@H](C)N(C)C(=O)[C@H]([C@@H](C)O)NC(=O)[C@H](CC(C)C)N(C)C(=O)[C@H](COCCC(C)C)NC(=O)[C@H](Cc2ccccc2)N(C)C(=O)[C@H](Cc2ccccc2)N(C)C1=O [pd302] ([NMeGABA][NMeL]I[NMeF][NMeF]S(Isopentyl)[NMeL]T[NMeA][NMeL]D-Piperidide; lactam N-11)
1.4
CCCCN1CC(=O)N(C)[C@@H](Cc2ccccc2)C(=O)N[C@@H](CCC(=O)NS(C)(=O)=O)C(=O)N(C)[C@@H](CC(C)C)C(=O)N[C@@H](CC(C)C)C(=O)N(C)CC(=O)N(C)[C@@H](Cc2ccccc2)C(=O)N(C)[C@@H](CC(C)C)C(=O)N[C@@H](CC(C)C)C(=O)N(C)[C@@H](CC(C)C)C(=O)N[C@H](C(=O)N2CCCCC2)CC1=O [pd70] ([NBuGly][NMeF][Glu(NHSO2Me)][NMeL]L[Sar][NMeF][NMeL]L[NMeL]D-Piperidide; lactam N-11)
0.17
CCCCCN1CC(=O)N(C)[C@@H](Cc2ccccc2)C(=O)N[C@@H](CC(C)C)C(=O)N(C)[C@@H](CC)C(=O)N[C@@H]([C@@H](C)O)C(=O)N(C)CC(=O)N(C)[C@@H](Cc2ccccc2)C(=O)N(C)[C@@H](CC)C(=O)N[C@@H](COC(C)(C)C)C(=O)N(C)[C@@H](CC(C)C)C(=O)N[C@H](C(=O)N2CCCCC2)CC1=O [pd405] ([NPentylGly][NMeF]L[NMeAbu]T[Sar][NMeF][NMeAbu]S(tBu)[NMeL]D-Piperidide; lactam N-11)
2.2
CC[C@H]1C(=O)N(C)[C@@H](Cc2ccccc2)C(=O)N[C@@H](C)C(=O)N(C)[C@@H](CC(C)C)C(=O)N(C)[C@@H](CC)C(=O)N[C@@H]([C@@H](C)O)C(=O)N(CCc2ccccc2)CC(=O)N(C)[C@@H](CC(C)C)C(=O)N[C@H](C(=O)N2CCCCC2)CC(=O)N(C)[C@@H](C(C)C)C(=O)N[C@@H](CC(C)C)C(=O)N1C [pd410] ([NMeV]L[NMeAbu][NMeF]A[NMeL][NMeAbu]T[Gly(NCH2CH2Ph)][NMeL]D-Piperidide; lactam N-11)
6
CCCCN1CC(=O)N(C)[C@@H](CCN2CCCC(F)(F)C2)C(=O)N[C@H](C(=O)N2CCCCC2)CC(=O)N(C)[C@@H](C)C(=O)N[C@@H](CC(C)C)C(=O)N(C)[C@@H](CC(C)C)C(=O)N(C)[C@@H](Cc2ccccc2)C(=O)N[C@@H](CC(C)C)C(=O)N(C)[C@@H](Cc2ccccc2)C(=O)N(C)[C@@H](C)C(=O)N[C@@H]([C@@H](C)O)C1=O [pd392] ([NMeA]L[NMeL][NMeF]L[NMeF][NMeA]T[NBuGly][NMeAbu(3,3-F2-piperidino)]D-Piperidide; lactam N-11)
3.5
